Target: T1, monkey TIM-3 extracellular domain protein with hFc tag (cTIM-3-hFc) (monkey)
T1 construct: not shown: human IgG Fc fragment (hFc) of the pCpC vector
T1 chain: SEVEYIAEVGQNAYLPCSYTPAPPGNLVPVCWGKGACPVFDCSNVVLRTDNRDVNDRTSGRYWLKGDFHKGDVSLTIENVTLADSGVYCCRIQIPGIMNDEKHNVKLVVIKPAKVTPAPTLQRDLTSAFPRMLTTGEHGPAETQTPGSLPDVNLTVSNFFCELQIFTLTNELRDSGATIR
Experiment: ELISA, coated monkey TIM-3 ECD protein, 0.0001 nM antibody
So I've got a bunch of binders here, and I need their OD450 values.

Take a look at these entries with their results.
134H3G6 fully human TIM-3 antibody (human IgG4, kappa) (antibody, V domains shown) VH: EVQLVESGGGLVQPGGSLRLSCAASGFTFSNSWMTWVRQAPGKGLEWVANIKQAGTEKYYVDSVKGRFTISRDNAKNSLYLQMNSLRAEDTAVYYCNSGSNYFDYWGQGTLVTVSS VL: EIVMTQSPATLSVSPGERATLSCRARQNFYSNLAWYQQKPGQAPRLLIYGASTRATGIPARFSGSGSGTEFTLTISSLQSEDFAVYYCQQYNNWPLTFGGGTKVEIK :: 0.14
57F4E5 fully human TIM-3 antibody (human IgG4, kappa) (antibody, V domains shown) VH: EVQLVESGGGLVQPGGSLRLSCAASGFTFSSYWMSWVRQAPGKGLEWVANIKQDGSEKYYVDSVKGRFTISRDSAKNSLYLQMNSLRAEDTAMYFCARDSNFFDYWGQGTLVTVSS VL: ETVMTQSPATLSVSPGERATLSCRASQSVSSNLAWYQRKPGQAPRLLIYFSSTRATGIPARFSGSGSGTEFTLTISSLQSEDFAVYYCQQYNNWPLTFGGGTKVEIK :: 0.17

Look up OD450 for this binder: 34B6D8 fully human TIM-3 antibody (human IgG4, kappa) (antibody, V domains shown) VH: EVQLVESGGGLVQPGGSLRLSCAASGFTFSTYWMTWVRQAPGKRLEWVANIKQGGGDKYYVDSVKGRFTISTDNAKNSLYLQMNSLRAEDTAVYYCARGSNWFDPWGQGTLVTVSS VL: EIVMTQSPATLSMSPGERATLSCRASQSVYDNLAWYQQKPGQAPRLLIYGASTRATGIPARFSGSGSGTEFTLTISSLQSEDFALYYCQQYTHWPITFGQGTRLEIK 0.17
